Target: Inositol hexakisphosphate kinase 2 (Homo sapiens, UniProt Q9UHH9)
Sequence (Q9UHH9 whole entry): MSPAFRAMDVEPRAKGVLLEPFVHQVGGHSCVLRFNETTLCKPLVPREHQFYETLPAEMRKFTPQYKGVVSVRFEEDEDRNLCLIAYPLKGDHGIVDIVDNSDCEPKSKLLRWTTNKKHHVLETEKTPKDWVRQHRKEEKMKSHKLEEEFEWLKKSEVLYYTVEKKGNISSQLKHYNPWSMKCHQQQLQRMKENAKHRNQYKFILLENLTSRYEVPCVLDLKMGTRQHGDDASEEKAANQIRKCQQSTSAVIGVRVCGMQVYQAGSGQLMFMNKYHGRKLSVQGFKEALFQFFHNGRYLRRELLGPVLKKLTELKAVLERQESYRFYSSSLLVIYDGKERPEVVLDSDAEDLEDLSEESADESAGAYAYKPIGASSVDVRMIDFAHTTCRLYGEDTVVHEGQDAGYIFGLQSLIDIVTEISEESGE
pIC50: −log10 of the molar value.

compound_structure_string | pIC50
COc1ccc2c(CCNc3nc(NCc4ccc(=O)[nH]c4)c4nc[nH]c4n3)c[nH]c2c1 | 4.70

* * *

assay: Half life in human microsomes at 1 uM incubated for 5 to 60 mins in presence of NADPH by LC-MS/MS analysis; assay type: ADME, Microsome
measured_endpoint: half-life at 1 µM (min)

compound_structure_string | measured_endpoint | value_reported
O=[N+]([O-])c1ccc(CNc2nc(NCc3cccc(C(F)(F)F)c3)nc3[nH]cnc23)cc1 | half-life at 1 µM | 32

* * *

molecular target: Inositol hexakisphosphate kinase 1 (Homo sapiens); test: Binding affinity to IP6K1 (unknown origin) assessed as change in melting temperature by SYPRO orange dye-based assay
Sequence (Q92551 whole entry, looked up): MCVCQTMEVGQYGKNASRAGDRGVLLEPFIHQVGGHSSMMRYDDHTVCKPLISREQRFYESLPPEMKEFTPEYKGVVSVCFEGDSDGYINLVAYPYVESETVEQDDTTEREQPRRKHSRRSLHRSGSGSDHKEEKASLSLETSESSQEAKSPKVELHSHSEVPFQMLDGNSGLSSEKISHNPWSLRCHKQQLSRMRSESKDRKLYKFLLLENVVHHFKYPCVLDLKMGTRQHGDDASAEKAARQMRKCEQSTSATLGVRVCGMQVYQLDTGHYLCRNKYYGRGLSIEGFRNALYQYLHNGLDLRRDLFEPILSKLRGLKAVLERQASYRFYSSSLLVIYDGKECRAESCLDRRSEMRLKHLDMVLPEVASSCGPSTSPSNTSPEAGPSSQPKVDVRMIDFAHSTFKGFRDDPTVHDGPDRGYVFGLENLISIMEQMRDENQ
Let's look at some compounds and their measured ΔTm.

compound_structure_string | reading_unit | ΔTm
COCCNc1nc(NCCc2c[nH]c3ccccc23)nc2[nH]cnc12 | °C | 4.3
COc1ccc2c(CCNc3nc(NCc4ccc(=O)[nH]c4)c4nc[nH]c4n3)c[nH]c2c1 | °C | 6.6
O=[N+]([O-])c1ccc(CNc2nc(NCc3cccc(C(F)(F)F)c3)nc3[nH]cnc23)cc1 | °C | 3.3
COCCNc1nc(NCCc2c[nH]c3cc(OC)ccc23)nc2[nH]cnc12 | °C | 4.7

* * *

target: UniProtKB Q92551; assay: Inhibition of IP6K1 (unknown origin) incubated for 30 mins using IP6 as substrate in presence of ATP by ADP-Glo reagent based luminescence assay; conditions: read-out: pIC50 (converted)
Sequence (Q92551 whole entry): as the sequence (Q92551 whole entry, looked up) above

compound_structure_string | IC50
COCCNc1nc(NCCc2c[nH]c3ccccc23)nc2cc[nH]c12 | > 200 µM
COCCN(C)c1nc(NCCc2c[nH]c3ccccc23)nc2c1ncn2C | > 200 µM
FC(F)(F)c1cccc(CNc2nc(NCCc3ccccc3)c3nc[nH]c3n2)c1 | > 200 µM
O=[N+]([O-])c1ccc(CNc2nc(NCc3cccc(C(F)(F)F)c3)nc3[nH]cnc23)cc1 | > 200 µM
COCCNc1nc(NCCc2c[nH]cn2)nc2[nH]cnc12 | > 200 µM
FC(F)(F)c1cccc(CNc2nc(NCc3ccccc3)c3nc[nH]c3n2)c1 | > 200 µM
COCCNc1nc(NCCc2c[nH]c3ccccc23)nc2[nH]ccc12 | > 200 µM
COCCNc1nc(N(C)CCc2c[nH]c3ccccc23)nc2nc[nH]c12 | > 200 µM
COCCNc1nc(NCCc2c[nH]c3ccccc23)nc2c1ncn2C | > 200 µM
COCCNc1nc(NCCc2c[nH]c3ccc(C)cc23)nc2[nH]cnc12 | 123 µM
COCCNc1nc(NCCc2c(C)[nH]c3ccccc23)nc2[nH]cnc12 | 1.95 µM
COCCNc1nc(NCc2cccc(C(F)(F)F)c2)nc2[nH]cnc12 | 117 µM
COCCNc1nc(NCCc2cccc3ccccc23)nc2[nH]cnc12 | 93.3 µM
COCCNc1nc(NCCc2ccc(F)cc2)nc2[nH]cnc12 | 89.1 µM
c1ccc2c(CCNc3nc(NCc4ccc5nonc5c4)c4nc[nH]c4n3)c[nH]c2c1 | 151 µM
